Biological target: T1, O8
T1 chain: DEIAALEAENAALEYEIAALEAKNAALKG
Assay: two-hybrid library CCNG1;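 note: natural log of median RNA to DNA barcode read ratio; higher means stronger binding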
Catalogue of interaction score readings, one per entry.
Answer with a number only.

Below are worked cases with known answers.
binder	interaction score
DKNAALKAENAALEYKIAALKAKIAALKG [O10]	-1.57
DENAALEAEIAALEYENAALEAKIAALKG [O14]	-2.34
DENAALEAEIAALEYKNAALKAEIAALEG [O5]	-2.4

Please find the next binder below.
Reported interaction score for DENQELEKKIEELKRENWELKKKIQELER [4H1373-bH] : what is it?
-0.719

This collection of values is drawn from paper PMC10397247.
